Tested on: RPMI-8226 leukemia
Assay: NCI tumour cell line growth inhibition, 48 h
TGI values, listed per item
Just the number in nM, nothing appended.

Solved cases (2 shown):
{"columns": ["Compound smiles", "Metric name", "Display unit", "Numeric readout"],
 "data": [
  ["CCNCCCn1c2c(c3ccc([N+](=O)[O-])cc3c1=O)C(=O)c1cc(OC)cnc1-2", "TGI", "nM", 976],
  ["COc1ccc(N(/C=C/C(=O)C(F)(F)F)CC(=O)c2ccc(Cl)c(Cl)c2)cc1", "TGI", "nM", 56600]
]}

Lab note: next compound to report on.
Task: # query: TGI | item "O=C1C(NCCN2CCOCC2)=C(Cl)C(=O)c2ncccc21" | system: RPMI-8226 leukemia
Output: 377
